The values you see were collected from PubChem BioAssay.

Record form. Attribute: inhibition. Fill in for each entry.
# procedureDetails: endothelial E-selectin expression blockers – imaging, HUVEC, immunofluorescence, MLSMR starter and 10KST1 sets, primary screen (AID 487);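 further: signal is fraction of cell area covered by stained E-selectin grains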
# conditionSummary: HUVEC TNFalpha-induced E-selectin immunofluorescence imaging, at 2 µM; stronger effect = higher value
One number for each entry, in %.

Some compounds with recorded inhibition:
{"compound": "CCCC1c2ccc(C)n2CCN1C(=O)Nc1ccccc1Cl (stereo not drawn)", "inhibition, %": -1}
{"compound": "COc1ccc(C(=O)N2CCN(c3nc4cc(C)ccc4cc3C#N)CC2)c(OC)c1", "inhibition, %": -49.6}
{"compound": "Cc1ccc(C)c(S(=O)(=O)NCc2cccnc2)c1", "inhibition, %": -89.8}

// for each compound below, give its inhibition
1. CC1=C(C(=O)N2CCCCC2)C2(CCC(C)CC2)OC1=O (stereo not drawn)
2. COc1ccc(OC)c(NC(=O)CCNS(=O)(=O)c2cccs2)c1
3. CCOc1ccccc1NC(=O)CSc1nnc2c(CC)c(C)nc(N)n12
4. COc1cccc(C2=NOC(C(=O)N3CCc4ccccc4C3)C2)c1 (stereo not drawn)
5. COc1cccc(S(=O)(=O)Nc2ccc(C(=O)N3CCN(C(=O)c4ccco4)CC3)cc2)c1
6. Cc1ccc(N2CCN(CCc3nc4cc(NS(C)(=O)=O)ccc4n3C)CC2)cc1
7. COc1ccc(-c2noc(-c3ccccc3C(=O)Nc3cccnc3)n2)cc1OC

OUT:
[-27.8, -74.4, 9.7, 10.4, -65.5, 21.6, -57.8]

Look up inhibition for the entries below, preserving their order.
1. CCC(C)(C)NC(=O)C(c1ccco1)N(C(=O)Cn1nnc2ccccc21)c1ccc2c(c1)OCO2 (stereo not drawn)
2. Cc1cc(C(=O)CSc2nc3ccccc3[nH]2)c(C)n1C
3. N#Cc1c2n(c(=S)n(-c3ccccn3)c1=O)CCCCC2
4. O=C(OCC(=O)N1CCC(Cc2ccccc2)CC1)c1ccc[nH]c1=O
5. CC(C)(C)SCCNC(=O)COc1ccc(Cl)cc1

OUT:
1: -10.4; 2: -82.7; 3: -117; 4: -41.6; 5: -272

Give inhibition for each listed item.
1. COC(=O)C1CCN(C(=O)NC(C)(C)C)CC1
2. CC1CCN(C(=O)CSCC(=O)Nc2nc(-c3cccs3)cs2)CC1
3. CCOc1ccc(NC(=O)c2ccccc2O)cc1
4. COc1ccc(CCn2c(NCCCN3CCOCC3)nc3c2c(=O)[nH]c(=O)n3C)cc1

OUT:
1: -37.4; 2: -38.7; 3: -114; 4: -6.4

---

# procedureDetails: inhibitors of TNFa-induced NFkB p65 translocation, primary screen, imaging, HUVEC, MLSMR starter and 10KST1 sets (AID 438);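 further: compound added about 3h40 before a 20 min TNFalpha stimulation; signal is the nuclear over cytoplasmic p65 intensity ratio per well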
# conditionSummary: HUVEC TNFa-induced p65 nuclear translocation; at 2 µM, stronger effect = higher value, 0% TNFa-plus-vehicle, 100% no-TNFa wells
measurementKind: inhibition (%)
Numbers only, in %.

Completed entries (count: 8):
{"compoundSmiles": "CCc1nnc(NC(=O)c2cc3c(s2)CCCCC3)s1", "u": "%", "inhibition": 4.4}
{"compoundSmiles": "CCOC(=O)CN(C(=O)c1ccccc1)c1ccccc1C", "u": "%", "inhibition": -2.5}
{"compoundSmiles": "N#CCC(=O)N1CCn2c1nc1ccccc12", "u": "%", "inhibition": -3.4}
{"compoundSmiles": "CCN(c1c(C)n(C)n(-c2ccccc2)c1=O)S(C)(=O)=O", "u": "%", "inhibition": 11.6}
{"compoundSmiles": "c1ccc(N2CCN(Cc3ccnc4ccccc34)CC2)cc1", "u": "%", "inhibition": 5.4}
{"compoundSmiles": "CN(CC(=O)Nc1ccc2c(c1)OCCO2)S(=O)(=O)c1ccc(Br)s1", "u": "%", "inhibition": -1.9}
{"compoundSmiles": "Cc1c(C(=O)NC2CC2)oc2ccc(S(=O)(=O)N3CCCCCC3)cc12", "u": "%", "inhibition": 3.4}
{"compoundSmiles": "Cc1nn(-c2ccccc2)c2sc(C(=O)N3CCOCC3)cc12", "u": "%", "inhibition": -4.4}

List the reported inhibition of each compound below.
1. Cc1nn(C)c(C)c1NC(=O)CSc1nc(Cc2ccccc2)nc2c1cnn2-c1ccccc1
2. CCCCN(CCCC)CCn1cnc2c([nH]c3ccc(OC)cc32)c1=O
3. Cc1cc(C)n(CCc2nc(-c3cccs3)cs2)n1

OUT:
1: -0.5; 2: -7.1; 3: -10.1

---

# procedureDetails: reduction of polyQ htt aggregates in cells – imaging, exon1htt(103Q)mCFP cells, high-content imaging, primary screen (AID 483);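 further: compound exposure lasted 3 days before fixation; percent of the per-plate median nuclei count of sample wells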
# conditionSummary: exon1htt(103Q)mCFP cell line, aggregate imaging, at 2 µM; measured here: cell count, toxicity
Kindly state nuclei count for each of the entries shown.
Numbers only, in %.

{"compound": "CCOC(=O)C1CCCN(C(=O)c2ccc(CS(=O)(=O)c3ccc(Br)cc3)o2)C1 (stereo not given)", "nuclei count, %": 108}
{"compound": "CCCOC(=O)c1[nH]c2c(c1C)C(=O)CC(c1ccc(OC)c(OC)c1)C2 (stereo not given)", "nuclei count, %": 101}

Please look at the items below and tell me nuclei count for each one, in order.
1. Cc1cc(C)cc(NC(=O)C2CCCN(c3nccc(C)n3)C2)c1 (stereo not given)
2. COc1ccc(S(=O)(=O)N2CCN(Cc3ccc(Cl)cc3)CC2)cc1
3. CC1CCN(Cc2ccc(NC(=O)C3CCN(c4nnc(-n5cccc5)s4)CC3)cc2)CC1
4. C/C=C(\C)c1nnc(NC(=O)OCC)s1

OUT:
[115, 61.1, 50.5, 115]

---

# targetOrTestSystem: Alpha-2C adrenergic receptor (Homo sapiens)
# procedureDetails: compounds altering alpha2C-coupled GIRK flux – cell-based, HEK293 alpha2C/GIRK1/2, thallium flux, primary screen (AID 624);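 further: slope of fluorescence ratio to pre-addition baseline per second over 15 to 24 s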
# conditionSummary: thallium flux BTC fluorescence, at 10 µM, actives lie on both sides
measurementKind: slope
Answers are plain numbers.

// worked examples, slope included
{"compound": "CC1(C)CC(=O)C(CC2=C(O)CC(C)(C)CC2=O)=C(O)C1", "slope": 0.00397}
{"compound": "CN1CCN(C(c2cccc(C(F)(F)F)c2)c2nnnn2C(C)(C)C)CC1 (stereo not given)", "slope": 0.00442}
{"compound": "COc1ccccc1NC(=O)NCCCN1CCN(c2cccc(Cl)c2)CC1", "slope": 0.00548}

Parameter requested: slope. Apply to each item below.
1. CCC(Sc1nc2sc(C(=O)OC)c(C)c2c(=O)n1N)C(=O)NCC1CCCO1 (stereo not given)
2. CC(=O)N1CCN(c2ccc(N=Cc3c(O)n(Cc4ccccc4)c(=O)[nH]c3=O)cc2)CC1

OUT:
[0.00714, 0.00469]

---

# procedureDetails: TLR3 IRF3 reporter activation blockers – cell-based, poly I:C stimulus, luciferase, 10K MLSCN set, primary screen (AID 602277)
# conditionSummary: HEK293-TLR3 RL24 IRF3 luciferase reporter, at 10 µM
The source made the active and inactive calls.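 Rule for the calls: active = inhibition of the reporter signal at or above 50%; inactive = inhibition below 50%.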
Your answer must be one of the following: active, inactive

Here are 2 compounds together with their reported answers.
{"compound": "COc1ccc(NC(=O)N(C2CCCCC2)C2CCN(C(C)C)CC2)c(OC)c1", "answerLabel": "inactive"}
{"compound": "COC(=O)Nc1nc2c(C)cccc2s1", "answerLabel": "inactive"}

IN: How did this test come out for COC(=O)CCSCc1cn2cc(Cl)ccc2n1 ?
OUT: active

IN: Which result was noted for this compound in the test: COCc1ccccc1Cn1cnc2c1c(=O)n(C)c(=O)n2C
OUT: inactive

IN: Field: outcome | Entry: O=C(C1CCCN(S(=O)(=O)c2cccc3nonc23)C1)N1CCC(Cc2ccccc2)CC1 (centres undefined)
OUT: inactive

---

# targetOrTestSystem: Voltage-gated potassium channel subunit beta-2 (Rattus norvegicus) (UniProt P62483)
# Sequence (P62483 whole entry, looked up): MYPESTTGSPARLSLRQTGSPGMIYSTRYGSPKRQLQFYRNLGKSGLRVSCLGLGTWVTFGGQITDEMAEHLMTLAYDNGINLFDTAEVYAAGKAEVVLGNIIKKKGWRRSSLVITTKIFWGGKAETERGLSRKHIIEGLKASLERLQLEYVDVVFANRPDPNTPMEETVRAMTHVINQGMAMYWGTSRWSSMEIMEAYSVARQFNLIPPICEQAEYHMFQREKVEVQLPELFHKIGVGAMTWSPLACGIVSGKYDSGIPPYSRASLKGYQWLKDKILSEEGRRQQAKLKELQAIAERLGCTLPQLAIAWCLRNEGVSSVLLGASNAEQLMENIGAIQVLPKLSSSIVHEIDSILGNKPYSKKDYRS
# procedureDetails: inhibitors of rat Kvbeta2 reductase activity – biochemical, NADPH fluorescence, primary screen (AID 622);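 further: slope of raw intensity against log time taken from 70 to 1610 s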
# conditionSummary: recombinant KvBeta, 4-cyanobenzaldehyde reduction, at 10 µM, stronger effect = higher value
Please provide measured fluorescence slope for the entries that follow.
One number for each entry.

Some compounds with recorded fluorescence slope:
{"compound": "CCCCCn1c(CCNC(=O)CCC)nc2ccccc21", "fluorescence slope": -0.552}
{"compound": "CCOc1ccc(OCCCCN(C)C)cc1", "fluorescence slope": -0.299}
{"compound": "Nc1cc(N)cc(-c2nc3ccccc3o2)c1", "fluorescence slope": -0.56}

Hi! Can you tell me fluorescence slope for each of these compounds?
1. CN1CCN(C2=C(Cl)C(=O)N(c3cccc(Cl)c3)C2=O)CC1
2. CCOC(=O)N1CCN(C(=O)c2c(-c3ccccc3)noc2C)CC1
3. O=S1(=O)CC(N2CCCCC2)C(N2CCCCC2)C1 (configuration not stated)

OUT:
[-0.355, -0.421, -0.587]

Can you give me fluorescence slope for all of these, one by one?
1. CCOC(=O)c1ccc(NC(=O)CCc2c(C)nc3ncnn3c2C)cc1
2. COCCN(CCOC)Cc1c(C)[nH]c2ccccc2c1=O
3. Cc1cc(C)nc(SCCS(=O)Cc2ccc(Cl)cc2)n1 (configuration not stated)
4. COc1ccc(C(C(=O)NC2CCCCC2)N2CCC3(CC2)OCCO3)cc1 (configuration not stated)
5. Cc1nn(C)c(C)c1CNC(=O)c1cc2n(n1)C(C(F)(F)F)CC(c1cccs1)N2 (configuration not stated)

OUT:
[-0.508, -0.351, -0.503, -0.525, -0.583]

Input COC(=O)C1=C(C)C(c2cccs2)NC(=O)N1C (configuration not stated) . Output fluorescence slope: -0.618
